Reference source: patent US20240246964A1

- SYSTEM TESTED: human PD-L1 (Homo sapiens (Human), UniProt Q9NZQ7)
- Sequence (Q9NZQ7 19-290): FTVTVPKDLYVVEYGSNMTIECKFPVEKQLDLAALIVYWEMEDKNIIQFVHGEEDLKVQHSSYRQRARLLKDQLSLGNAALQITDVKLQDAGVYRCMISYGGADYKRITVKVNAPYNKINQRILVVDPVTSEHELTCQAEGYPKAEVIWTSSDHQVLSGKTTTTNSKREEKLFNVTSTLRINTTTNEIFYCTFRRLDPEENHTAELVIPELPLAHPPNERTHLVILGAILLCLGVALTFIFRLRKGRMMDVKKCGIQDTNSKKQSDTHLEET
- ASSAY DETAILS: T cell activation luciferase reporter cell culture system (T Cell Activation Assay)
- Assay type: cell-based
- RECORDED CONDITIONS: luciferase reporter assay; PD-L1 aAPC/CHO-K1 cells with PD-1 effector Jurkat T cells
The reader will find reported EC50 values listed item by item below.

{"columns": ["MOLECULE", "COMPARISON OPERATOR", "EC50 (nM)"],
 "data": [
  ["CNCc1cn(C)c2nc(-c3cccc(-c4ccnc(-c5ccc(CNC[C@@H]6CCC(=O)N6)c(OC)c5)c4Cl)c3Cl)ccc12 [Compound 94]", "=", 47.5],
  ["COc1cc(-c2ncnc(-c3cccc(-c4ccc(CN[C@H]5C[C@@H](O)C5)c(OC)n4)c3Cl)c2Cl)ccc1CN[C@H]1C[C@@H](O)C1 [Example 592]", "=", 86.4],
  ["CNCc1ccc(-c2ccnc(-c3cccc4c3CC[C@@H]4Nc3nc(OC)c(CNC)cc3C(F)(F)F)c2Cl)nc1OC [Compound 224]", "≥", 10000]
]}
